Attribution: patent EP0266890A1

- assay_text: in vivo
- Parameters: species or system Fischer-rats
- measurement_parameters: rat, po
metric: LD50 at 24 h

# smiles_repr, observed
rows = [
    ("CC(C)=CCOc1cccn2c(CC#N)c(C)nc12", "> 1000 mg/kg"),
]
